Form: system (Chymotrypsinogen A (Bos taurus)), quantity (log10 of IC50), values below.
Log scale reminder: IC50 in µM, then log10 taken.

Here's what some known entries look like.
O=C1CN(c2ccccc2)C(=O)N1S(=O)(=O)c1ccc(F)cc1 ... 0.41
O=C1CN(c2ccccc2)C(=O)N1C(=O)c1ccccc1 ... -1.32
O=C(O)c1ccc(N2CC(=O)N(S(=O)(=O)c3ccc(Cl)cc3)C2=O)cc1 ... 1.62

# value of log10 of IC50, Chymotrypsinogen A (Bos taurus), item `COC(=O)Cc1cccc(S(=O)(=O)N2C(=O)CN(c3ccccc3)C2=O)c1` = 0.60

# value of log10 of IC50, Chymotrypsinogen A (Bos taurus), item `O=C1CN(c2ccccc2)C(=O)N1S(=O)(=O)c1ccc(Cl)c(Cl)c1` = 0.58

# value of log10 of IC50, Chymotrypsinogen A (Bos taurus), item `O=C1CN(c2ccc(Cl)c(Cl)c2)C(=O)N1S(=O)(=O)c1ccc(Cl)c(Cl)c1` = 0.57

# value of log10 of IC50, Chymotrypsinogen A (Bos taurus), item `O=C1CN(c2ccc(Cl)c(Cl)c2)C(=O)N1S(=O)(=O)c1ccc(Cl)cc1` = 0.60

# value of log10 of IC50, Chymotrypsinogen A (Bos taurus), item `N#Cc1cccc(S(=O)(=O)N2C(=O)CN(c3ccccc3)C2=O)c1` = -0.14

# value of log10 of IC50, Chymotrypsinogen A (Bos taurus), item `N#Cc1ccc(S(=O)(=O)N2C(=O)CN(c3ccccc3)C2=O)cc1` = 1.18

src = ChEMBL document CHEMBL1130085
